Measured IC50, listed per entry for reference.
# targetOfAssay: T1, cloned human somatostatin receptor 5 (human, UniProt P35346 1-364)
# T1 construct: whole, on cells; Tested as cell membrane preparations; also called SSTR-5; SSTR5
# T1 sequence (P35346 whole entry): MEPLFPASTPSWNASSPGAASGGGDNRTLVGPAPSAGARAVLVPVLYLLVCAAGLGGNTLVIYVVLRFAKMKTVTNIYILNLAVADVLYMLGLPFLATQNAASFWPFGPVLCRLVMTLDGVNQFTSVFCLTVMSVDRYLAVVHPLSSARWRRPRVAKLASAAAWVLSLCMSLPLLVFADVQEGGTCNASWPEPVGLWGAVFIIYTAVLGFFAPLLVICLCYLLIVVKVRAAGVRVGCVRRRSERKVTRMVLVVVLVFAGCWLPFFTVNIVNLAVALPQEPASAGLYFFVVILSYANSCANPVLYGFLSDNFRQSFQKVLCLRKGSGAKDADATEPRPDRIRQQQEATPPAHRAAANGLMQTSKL
# protocolText: IC50 for SST-R5 (subtype numbers stand in r6)
Bridges are numbered along the chain shown (N, C = ends). Where no end group is shown, it is not given here. [ ]: non-standard residue; d: D form. Gly(S2) = not defined here; Mpa = O=C(O)CCS
measuredProperty: IC50 (nM)

[dF]CFW[dW]KTF[Gly(S2)]-NH2 (disulfide 2-9; reading uncertain, Backbone to side chain cyclized nonapeptide) [PTR 3207] : 4
FGFWWKTFG ((D)Phe at 1; Gly(S2) building units at 2 and 9 bridged to each other; (D)Trp at 5; C-terminal amide) [PTR 3219] : 37
{mercaptoacetic acid}-FW[dW]KTF[Gly(S2)]-NH2 (disulfide N-7; reading uncertain, Cyclized between the SH moiety and the SH-type building unit) [PTR 3211] : 1.3
[Mpa]FW[dW]KTF[Gly(S2)]-NH2 (bridge N-8; reading uncertain) [PTR 3217] : 4.1
